# System: TK10 (Kidney Carcinoma)
# assay.comment: combination Emax (second highest fraction inhibited in the dose matrix, 72 h); higher = more inhibition; extreme values may be limits of the assay
reported.metric: combination Emax

CCN(CCO)CCCOc1ccc2c(Nc3cc(CC(=O)Nc4cccc(F)c4)[nH]n3)ncnc2c1 [AZD2811] + O=C(c1cc(Cc2n[nH]c(=O)c3ccccc23)ccc1F)N1CCN(C(=O)C2CC2)CC1 [Olaparib] (first compound max 1 µM, 7x7, partner max 10 µM); 0.189
CC1(C)CCC(CN2CCN(c3ccc(C(=O)NS(=O)(=O)c4ccc(NCC5CCOCC5)c([N+](=O)[O-])c4)c(Oc4cnc5[nH]ccc5c4)c3)CC2)=C(c2ccc(Cl)cc2)C1 [Venetoclax] + CN(C)CCCOc1ccc(-c2ccc3ncc4c(c3c2)n(C2CCOCC2)c(=O)n4C)cn1 [AZD0156] (first compound max 1 µM, 7x7, partner max 1 µM); 0.304
O=C(c1cc(Cc2n[nH]c(=O)c3ccccc23)ccc1F)N1CCN(C(=O)C2CC2)CC1 [Olaparib] + CN(CC[C@H](CSC1=CC=CC=C1)NC2=C(C=C(C=C2)S(=O)(=O)NC(=O)C3=CC=C(C=C3)N4CCC(CC4)[C@H](C5=CC=CC=C5C6=CC=C(C=C6)Cl)O)S(=O)(=O)C(F)(F)F)CCO [AZD4320] (first compound max 10 µM, 7x7, partner max 1 µM); 0.128
CC(=O)c1c(C)c2cnc(Nc3ccc(N4CCNCC4)cn3)nc2n(C2CCCC2)c1=O [Palbociclib] + CC1(C)CCC(CN2CCN(c3ccc(C(=O)NS(=O)(=O)c4ccc(NCC5CCOCC5)c([N+](=O)[O-])c4)c(Oc4cnc5[nH]ccc5c4)c3)CC2)=C(c2ccc(Cl)cc2)C1 [Venetoclax] (first compound max 10 µM, 7x7, partner max 1 µM); 0.3
O=C(c1cc(Cc2n[nH]c(=O)c3ccccc23)ccc1F)N1CCN(C(=O)C2CC2)CC1 [Olaparib] + CC1(C)CCC(CN2CCN(c3ccc(C(=O)NS(=O)(=O)c4ccc(NCC5CCOCC5)c([N+](=O)[O-])c4)c(Oc4cnc5[nH]ccc5c4)c3)CC2)=C(c2ccc(Cl)cc2)C1 [Venetoclax] (first compound max 10 µM, 7x7, partner max 1 µM); 0.0731
COc1nnc2ccc(N3CCC(c4ccc(OCCN5CCN(C)C(=O)[C@H]5C)cc4)CC3)nn12 [AZD5153] + C[C@@H]1COCCN1C2=NC(=NC(=C2)C3(CC3)[S@](=N)(=O)C)C4=C5C=CNC5=NC=C4 [AZD6738] (first compound max 1 µM, 7x7, partner max 10 µM); 0.695
CC1(C)CCC(CN2CCN(c3ccc(C(=O)NS(=O)(=O)c4ccc(NCC5CCOCC5)c([N+](=O)[O-])c4)c(Oc4cnc5[nH]ccc5c4)c3)CC2)=C(c2ccc(Cl)cc2)C1 [Venetoclax] + CS(=O)(=O)CCNCc1ccc(-c2ccc3ncnc(Nc4ccc(OCc5cccc(F)c5)c(Cl)c4)c3c2)o1 [Lapatinib] (first compound max 1 µM, 7x7, partner max 10 µM); 0.516
CN(C)CCCOc1ccc(-c2ccc3ncc4c(c3c2)n(C2CCOCC2)c(=O)n4C)cn1 [AZD0156] + C=CCn1c(=O)c2cnc(Nc3ccc(N4CCN(C)CC4)cc3)nc2n1-c1cccc(C(C)(C)O)n1 [AZD1775] (first compound max 1 µM, partner max 1 µM); 0.353
CN(CCO)CC[C@H](CSc1ccccc1)Nc1ccc(S(=O)(=O)NC(=O)c2ccc(N3CCC([C@@H](O)c4ccccc4-c4ccc(Cl)cc4)CC3)cc2)cc1S(=O)(=O)C(F)(F)F [AZD4320] + Nc1ccn([C@@H]2O[C@H](CO)[C@@H](O)C2(F)F)c(=O)n1 [Gemcitabine] (first compound max 1 µM, 7x7, partner max 0.3 µM); 0.301
C[C@@H](c1ccc2nccn2c1)n1nnc2ncc(-c3cnn(C)c3)nc21 [Savolitinib] + Cc1c2c(nn1C)CSCc1cc(n(C)n1)CSc1cc(c3ccccc3c1)OCCCc1c(C(=O)O)n(C)c3c-2c(Cl)ccc13 [AZD5991] (first compound max 1 µM, 7x7, partner max 1 µM); 0.116
CCc1c2c(nc3ccc(O)cc13)-c1cc3c(c(=O)n1C2)COC(=O)[C@]3(O)CC [SN-38] + O=C(c1cc(Cc2n[nH]c(=O)c3ccccc23)ccc1F)N1CCN(C(=O)C2CC2)CC1 [Olaparib] (first compound max 0.3 µM, 7x7, partner max 10 µM); 0.373
NC1(C(=O)N[C@@H](CCO)c2ccc(Cl)cc2)CCN(c2ncnc3[nH]ccc23)CC1 [Capivasertib] + CC(C)n1c(=O)n(C)c2cnc3cc(F)c(-c4ccc(OCCCN5CCCCC5)nc4)cc3c21 [AZD1390] (first compound max 10 µM, 7x7, partner max 0.3 µM); 0.411

====

# Test system: YH-13 (Glioblastoma)
# assay.comment: Bliss excess, mean over the matrix (fraction); higher = more synergy
As shown below, each of these molecules has a reported Bliss excess value.
reported.metric: Bliss excess

COc1cc2c(cc1OCCCCCOc1cc3c(cc1OC)C(=O)N1C=C(C)C[C@H]1C=N3)N=C[C@@H]1CC(C)=CN1C2=O [SG3199] + O=C(c1cc(Cc2n[nH]c(=O)c3ccccc23)ccc1F)N1CCN(C(=O)C2CC2)CC1 [Olaparib] (first compound max 0.001 µM, 7x7, partner max 10 µM); -0.0282
CC1(C)CCC(CN2CCN(c3ccc(C(=O)NS(=O)(=O)c4ccc(NCC5CCOCC5)c([N+](=O)[O-])c4)c(Oc4cnc5[nH]ccc5c4)c3)CC2)=C(c2ccc(Cl)cc2)C1 [Venetoclax] + C=CCn1c(=O)c2cnc(Nc3ccc(N4CCN(C)CC4)cc3)nc2n1-c1cccc(C(C)(C)O)n1 [AZD1775] (first compound max 1 µM, partner max 1 µM); -0.0085
CC1(C)CCC(CN2CCN(c3ccc(C(=O)NS(=O)(=O)c4ccc(NCC5CCOCC5)c([N+](=O)[O-])c4)c(Oc4cnc5[nH]ccc5c4)c3)CC2)=C(c2ccc(Cl)cc2)C1 [Venetoclax] + C1CN(CCC1(C(=O)N[C@@H](CCO)C2=CC=C(C=C2)Cl)N)C3=NC=NC4=C3C=CN4 [Capivasertib] (first compound max 1 µM, 7x7, partner max 3 µM); -0.039

====

# Test system: JVM-3 (B-Cell Non-Hodgkin's Lymphoma)
# assay.comment: Bliss excess, mean over the matrix (fraction); higher = more synergy
reported.metric: Bliss excess

Cc1c2c(nn1C)CSCc1cc(n(C)n1)CSc1cc(c3ccccc3c1)OCCCc1c(C(=O)O)n(C)c3c-2c(Cl)ccc13 [AZD5991] + C=CCn1c(=O)c2cnc(Nc3ccc(N4CCN(C)CC4)cc3)nc2n1-c1cccc(C(C)(C)O)n1 [AZD1775] (first compound max 1 µM, partner max 1 µM); -0.0884
CC1(C)CCC(CN2CCN(c3ccc(C(=O)NS(=O)(=O)c4ccc(NCC5CCOCC5)c([N+](=O)[O-])c4)c(Oc4cnc5[nH]ccc5c4)c3)CC2)=C(c2ccc(Cl)cc2)C1 [Venetoclax] + C[C@@H]1COCCN1C2=NC(=NC(=C2)C3(CC3)[S@](=N)(=O)C)C4=C5C=CNC5=NC=C4 [AZD6738] (first compound max 1 µM, 7x7, partner max 10 µM); 0.0106
COc1cccc(OCCCN)c1-c1cc(Nc2cnc(C#N)cn2)n[nH]1 [Prexasertib] + C[C@@H]1COCCN1C2=NC(=NC(=C2)C3(CC3)[S@](=N)(=O)C)C4=C5C=CNC5=NC=C4 [AZD6738] (first compound max 1 µM, 7x7, partner max 10 µM); -0.0351
CN(CCO)CC[C@H](CSc1ccccc1)Nc1ccc(S(=O)(=O)NC(=O)c2ccc(N3CCC([C@@H](O)c4ccccc4-c4ccc(Cl)cc4)CC3)cc2)cc1S(=O)(=O)C(F)(F)F [AZD4320] + Cc1cc2ncnn2cc1Nc1ncc2c(n1)n(C1CCOCC1)c(=O)n2C [AZD7648] (first compound max 1 µM, 7x7, partner max 10 µM); -0.0214
Cc1cc2ncnn2cc1Nc1ncc2c(n1)n(C1CCOCC1)c(=O)n2C [AZD7648] + C=CCn1c(=O)c2cnc(Nc3ccc(N4CCN(C)CC4)cc3)nc2n1-c1cccc(C(C)(C)O)n1 [AZD1775] (first compound max 10 µM, partner max 1 µM); -0.0686
Cc1cc2ncnn2cc1Nc1ncc2c(n1)n(C1CCOCC1)c(=O)n2C [AZD7648] + C[C@@H]1COCCN1C2=NC(=NC(=C2)C3(CC3)[S@](=N)(=O)C)C4=C5C=CNC5=NC=C4 [AZD6738] (first compound max 10 µM, 7x7, partner max 10 µM); 0.0108

====

# Tested on: TGW (Neuroblastoma)
# assay.comment: combination Emax (second highest fraction inhibited in the dose matrix, 72 h); higher = more inhibition; extreme values may be limits of the assay
Please note: Fulfilled applies when combination Emax is 0.7 or greater, and Not fulfilled applies otherwise.

Cc1c2c(nn1C)CSCc1cc(n(C)n1)CSc1cc(c3ccccc3c1)OCCCc1c(C(=O)O)n(C)c3c-2c(Cl)ccc13 [AZD5991] + C1CN(CCC1(C(=O)N[C@@H](CCO)C2=CC=C(C=C2)Cl)N)C3=NC=NC4=C3C=CN4 [Capivasertib] (first compound max 1 µM, 7x7, partner max 3 µM); Not fulfilled
Cc1cc2ncnn2cc1Nc1ncc2c(n1)n(C1CCOCC1)c(=O)n2C [AZD7648] + CN(C)CCCOc1ccc(-c2ccc3ncc4c(c3c2)n(C2CCOCC2)c(=O)n4C)cn1 [AZD0156] (first compound max 10 µM, 7x7, partner max 1 µM); Not fulfilled
COc1nnc2ccc(N3CCC(c4ccc(OCCN5CCN(C)C(=O)[C@H]5C)cc4)CC3)nn12 [AZD5153] + C[C@@H]1COCCN1C2=NC(=NC(=C2)C3(CC3)[S@](=N)(=O)C)C4=C5C=CNC5=NC=C4 [AZD6738] (first compound max 1 µM, 7x7, partner max 10 µM); Fulfilled
NC1(C(=O)N[C@@H](CCO)c2ccc(Cl)cc2)CCN(c2ncnc3[nH]ccc23)CC1 [Capivasertib] + CCN(CCO)CCCOc1ccc2c(Nc3cc(CC(=O)Nc4cccc(F)c4)[nH]n3)ncnc2c1 [AZD2811] (first compound max 10 µM, 7x7, partner max 1 µM); Not fulfilled
CN(CCO)CC[C@H](CSc1ccccc1)Nc1ccc(S(=O)(=O)NC(=O)c2ccc(N3CCC([C@@H](O)c4ccccc4-c4ccc(Cl)cc4)CC3)cc2)cc1S(=O)(=O)C(F)(F)F [AZD4320] + Cc1cc2ncnn2cc1Nc1ncc2c(n1)n(C1CCOCC1)c(=O)n2C [AZD7648] (first compound max 1 µM, 7x7, partner max 10 µM); Fulfilled
CN(CCO)CC[C@H](CSc1ccccc1)Nc1ccc(S(=O)(=O)NC(=O)c2ccc(N3CCC([C@@H](O)c4ccccc4-c4ccc(Cl)cc4)CC3)cc2)cc1S(=O)(=O)C(F)(F)F [AZD4320] + CS(=O)(=O)CCNCc1ccc(-c2ccc3ncnc(Nc4ccc(OCc5cccc(F)c5)c(Cl)c4)c3c2)o1 [Lapatinib] (first compound max 1 µM, 7x7, partner max 10 µM); Fulfilled

Origin of measurements: the supplement of paper PMC11061612
